Examples of molecules with documented ΔTm follow.
target: Fibroblast growth factor receptor 3 (Homo sapiens); details: Compound concentration 20.0 uM, Protein concentration 2.0 uM, Result type QC Liability
Description: Thermal Shift Assay. Domain: start/stop: P449-E759
Dear colleague, please return just the value in °C, with no unit written.

These recorded examples may help you get a feel for the data.
CCCn1cc(-c2cc(C3C(=O)N(CC)c4ccc(C(F)(F)F)cc4N(c4ccccc4)C3=O)cc(OC)c2O)cn1 (configuration not stated): 0.46
C[C@@H]1C[C@H](C)CN(c2ncc(Cl)c(Nc3ccc4c(c3)cc(OC(C)(C)C(=O)O)c(=O)n4C)n2)C1: 0.41
N#Cc1cccc(-c2c[nH]c3ncnc(N4CCOCC4)c23)c1: 2.14
C=CC[C@@H]1/C=C(\C)C[C@H](C)C[C@H](OC)[C@H]2O[C@@](O)(C(=O)C(=O)N3CCCC[C@H]3C(=O)O[C@H](/C(C)=C/[C@@H]3CC[C@@H](O)[C@H](OC)C3)[C@H](C)[C@@H](O)CC1=O)[C@H](C)C[C@@H]2OC: 0.4

Return ΔTm measured with Fibroblast growth factor receptor 3 (Homo sapiens) given this molecule: CC(C)(c1ccc(OCc2cccc(COc3ccc(C(=N)N)cc3)c2)cc1)c1ccc(O[C@@H]2O[C@H](C(=O)O)[C@@H](O)[C@H](O)[C@H]2O)cc1
-5.02

Queued: CN1C(=O)Cc2ccc(-c3ccc(C[C@@H](C#N)NC(=O)[C@@H]4N[C@H]5CC[C@@H]4C5)c(F)c3)cc21
0.66

Queued: Cn1c(C(=O)N[C@@H](CO)c2ccc(C(=O)O)cc2)cc2cc(Cl)ccc21
0.81

---

Examples of compounds with documented ΔTm follow.
biological target: Peregrin (Homo sapiens); settings: Compound concentration 20.0 uM, Protein concentration 2.0 uM, Result type QC Liability
Dear colleague, please return just the value in °C, with no unit written.

These recorded examples may help you get a feel for the data.
CC(=O)O[C@H]1C(=O)[C@@]2(C)[C@H]([C@H](OC(=O)c3ccccc3)[C@]3(O)C[C@H](OC(=O)[C@H](O)[C@@H](NC(=O)c4ccccc4)c4ccccc4)C(C)=C1C3(C)C)[C@]1(OC(C)=O)CO[C@@H]1C[C@@H]2O: -2.68
CC(=O)N1CCC(c2ccc(C(=O)NC(=N)N)cc2C(F)(F)F)CC1: -2.69
CCCS(=O)(=O)Nc1ccc(F)c(Nc2ncnc3cnc(-n4cnc(C)c4)nc23)c1F: 0.01

Which measured ΔTm value corresponds to Cc1cc2c(ncn2C2(C)CN(C(=O)c3ccn(CC4CCN([C@H]5C=CCCCC5)CC4)c3)C2)c(N)n1 ?
-0.47

Queued: Nc1ncc2c(n1)-c1c([nH]c3ccc(C4=CCOCC4)cc13)CCC2
-2.26

Queued: COC[C@@H](C)N[C@H]1CC[C@H](Nc2cc(-c3cccc(NCC4(C#N)CCOCC4)n3)c(Cl)cn2)CC1
-1.02

Queued: COC1(C#Cc2ccc(Cl)c(-c3ncc4c(n3)-c3sc(NC(C)=O)nc3CC4)c2)CCN(C)CC1
-1.7

Queued: CCN(CC)C/C=C/C(=O)Nc1cc2c(Nc3ccc(F)c(Cl)c3)ncnc2cc1OCC1CC1
-0.42

Queued: COc1ccc(CSc2nnc(-c3ccc4ncsc4c3)o2)cc1C(F)(F)F
-1.83

---

target: Fibroblast growth factor receptor 3 (Homo sapiens) (UniProt P22607); details: Compound concentration 20.0 uM, Protein concentration 2.0 uM, Result type QC Liability
Sequence (P22607 23-806 limits assumed): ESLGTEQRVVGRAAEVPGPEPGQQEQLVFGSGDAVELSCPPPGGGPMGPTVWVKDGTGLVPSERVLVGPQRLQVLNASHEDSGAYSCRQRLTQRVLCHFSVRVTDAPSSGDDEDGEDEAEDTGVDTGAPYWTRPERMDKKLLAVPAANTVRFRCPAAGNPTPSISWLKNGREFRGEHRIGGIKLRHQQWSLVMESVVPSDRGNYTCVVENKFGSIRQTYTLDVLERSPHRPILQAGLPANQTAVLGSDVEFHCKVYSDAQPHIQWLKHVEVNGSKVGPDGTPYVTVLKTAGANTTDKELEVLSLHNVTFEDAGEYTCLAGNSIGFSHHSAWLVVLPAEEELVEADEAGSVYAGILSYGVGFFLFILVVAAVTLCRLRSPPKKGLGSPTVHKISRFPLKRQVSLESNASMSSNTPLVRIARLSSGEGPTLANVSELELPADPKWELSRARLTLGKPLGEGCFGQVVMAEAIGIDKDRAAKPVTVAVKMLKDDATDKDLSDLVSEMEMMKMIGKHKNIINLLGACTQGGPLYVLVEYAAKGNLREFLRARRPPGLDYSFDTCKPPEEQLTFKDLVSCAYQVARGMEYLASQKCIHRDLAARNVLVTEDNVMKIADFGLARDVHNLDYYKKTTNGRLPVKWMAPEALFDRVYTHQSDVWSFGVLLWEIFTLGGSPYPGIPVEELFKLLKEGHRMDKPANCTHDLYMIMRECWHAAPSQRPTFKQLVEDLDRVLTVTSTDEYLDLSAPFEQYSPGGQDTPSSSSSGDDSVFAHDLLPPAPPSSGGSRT
Assay Metric: ΔTm (°C)
Dear colleague, please return just the value in °C, with no unit written.

These recorded examples may help you get a feel for the data.
CCOC(=O)N1CCC(CN(Cc2ccc(Cl)cc2)Cc2ccc([N+](=O)[O-])s2)C1 (stereo unspecified): 0.35
COC(=O)c1sccc1S(=O)(=O)Nc1ccc(Nc2ccccc2)cc1OC: 0.39
CN1CCN(c2ccnc(NCCc3ccccc3)n2)CC1: 0.59
N[C@@H](CC(=O)O)Cn1nnc(-c2ccc(Oc3ncc(Cl)cc3F)cc2)n1: 0.43
CNc1oc(-c2cccc3ccccc23)nc1C#N: 0.61

Which measured ΔTm value corresponds to Cc1ncsc1-c1ccc(CNC(=O)[C@@H]2C[C@H](O)CN2C(=O)[C@@H](NC(=O)C2(F)CC2)C(C)(C)C)c(OCCOc2ccc(CN3CCN(c4cc(-c5ccccc5O)nnc4N)CC3)cc2)c1 (relative stereo) ?
-0.13

Queued: CS(=O)(=O)NCC[C@H](NC(=O)c1cncc2c1cnn2-c1ccc(F)cc1)c1ccnc(S(C)(=O)=O)c1
0.62

Queued: CCOC(=O)c1ccc(CN(Cc2ccc(-c3cccc(S(C)(=O)=O)c3)cc2)S(=O)(=O)c2c(C)cc(C)cc2C)o1
-1.46

---

biological target: Fibroblast growth factor receptor 3 (Homo sapiens) (UniProt P22607); details: Compound concentration 20.0 uM, Protein concentration 2.0 uM, Result type QC Liability
Please use the following ΔTm ranges when assigning a class: low interval: < 0.5 °C; middle interval: ≥ 0.5 °C and < 2 °C; high interval: ≥ 2 °C

Worked cases, answers included:
Cn1cc(-c2cnc3ccc4ccc(CS(=O)(=O)NCc5ccccn5)cc4c(=O)c3c2)cn1: high interval
O=C(O)CCCCN(CCc1cc(F)ccc1OCc1ccc(-c2ccc(C(F)(F)F)cc2)cc1)Cc1ccc(C(=O)O)cc1: low interval
Cc1cc([N+](=O)[O-])c(NS(=O)(=O)c2cccc(C(=O)O)c2)cc1-c1cccnc1: middle interval
O=C(CCCCCCc1ccccc1)c1ncc(-c2ccccn2)o1: low interval
CCOc1ccc(S(=O)(=O)Nc2ccc(Cl)cc2C#Cc2cnc(C(=O)O)cc2OC)c2ncccc12: low interval

Please classify: CN[C@@H](C)C(=O)N[C@H](C(=O)N1CCC[C@H]1C(=O)Nc1sc(-c2ncco2)nc1-c1ccccc1)C1CCCCC1
low interval

Queued: CCOC(=O)CS(=O)(=O)c1ccc([C@@H](CO)NC(=O)c2cc3c(Cl)c(Cl)c(C)cc3n2C)cc1
high interval

Queued: O=C(Nc1ccccc1C(=O)O)c1cc(S(=O)(=O)c2ccccc2)ccc1Cl
middle interval

---

Target: Peregrin (Homo sapiens)
Sequence (whole entry): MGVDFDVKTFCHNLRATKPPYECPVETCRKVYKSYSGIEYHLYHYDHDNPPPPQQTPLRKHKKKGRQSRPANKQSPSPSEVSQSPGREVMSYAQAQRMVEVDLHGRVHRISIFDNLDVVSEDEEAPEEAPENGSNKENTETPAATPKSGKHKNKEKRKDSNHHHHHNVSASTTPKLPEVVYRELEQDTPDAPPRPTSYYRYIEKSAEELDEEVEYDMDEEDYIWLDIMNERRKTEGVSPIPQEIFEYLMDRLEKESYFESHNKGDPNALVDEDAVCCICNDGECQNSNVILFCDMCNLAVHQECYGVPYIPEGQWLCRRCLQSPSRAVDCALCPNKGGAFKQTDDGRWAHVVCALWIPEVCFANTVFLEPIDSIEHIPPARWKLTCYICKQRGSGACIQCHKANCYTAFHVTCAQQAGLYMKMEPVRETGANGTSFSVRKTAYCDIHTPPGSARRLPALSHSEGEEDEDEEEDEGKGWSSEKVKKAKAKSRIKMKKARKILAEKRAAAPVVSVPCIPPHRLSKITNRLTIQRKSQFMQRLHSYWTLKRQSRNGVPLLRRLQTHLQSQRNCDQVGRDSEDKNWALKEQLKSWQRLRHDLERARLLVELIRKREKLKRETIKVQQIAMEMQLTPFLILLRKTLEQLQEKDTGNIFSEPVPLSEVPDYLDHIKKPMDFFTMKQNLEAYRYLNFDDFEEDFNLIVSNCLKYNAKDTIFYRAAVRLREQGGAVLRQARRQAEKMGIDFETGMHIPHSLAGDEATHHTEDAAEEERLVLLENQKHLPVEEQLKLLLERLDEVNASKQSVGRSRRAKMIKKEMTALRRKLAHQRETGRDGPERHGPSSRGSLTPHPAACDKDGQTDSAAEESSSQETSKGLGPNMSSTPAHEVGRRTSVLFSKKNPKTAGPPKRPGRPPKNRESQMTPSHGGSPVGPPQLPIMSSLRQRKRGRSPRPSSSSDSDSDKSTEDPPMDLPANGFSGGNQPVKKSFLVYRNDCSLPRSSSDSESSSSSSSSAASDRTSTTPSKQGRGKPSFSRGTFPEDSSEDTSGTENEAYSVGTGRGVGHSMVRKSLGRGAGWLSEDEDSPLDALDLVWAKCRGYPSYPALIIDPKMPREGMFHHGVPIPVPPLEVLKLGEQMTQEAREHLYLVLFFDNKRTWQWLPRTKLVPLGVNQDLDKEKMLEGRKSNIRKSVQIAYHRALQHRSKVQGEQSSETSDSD
Settings: Compound concentration 20.0 uM, Protein concentration 2.0 uM, Result type QC Liability
Assay Metric: ΔTm (°C)
Dear colleague, please return just the value in °C, with no unit written.

These recorded examples may help you get a feel for the data.
CC(=O)c1c(C)c2cnc(Nc3ccc(N4CCN(CCOCCOCCOCCNC(=O)COc5cccc6c5C(=O)N(C5CCC(=O)NC5=O)C6=O)CC4)cn3)nc2n(C2CCCC2)c1=O (centres undefined): -1.99
COC(=O)c1ccc2c(c1)NC(=O)/C2=C(\Nc1ccc(-c2nccn2C)cc1)c1ccccc1: -1.36
Nc1nc(-c2nn(Cc3ccccc3F)c3ncccc23)ncc1C1CC1: -2.28

Which measured ΔTm value corresponds to CC(C)NC(=O)[C@H]1CCC[C@H]1Nc1nc(Nc2ccc(CN(C)C)cc2)ncc1Br ?
-1.84
